# experimental_protocol: Cytotoxicity against mouse RAW264.7 cells assessed as cell survival rate up to 25 uM after 18 hrs by MTT assay relative to control
# Format: cell-based
# test_context: read-out: Survival
metric: viability at 18 h (%)
Provide only the numeric value, understood in %.

Task: Consider the compound CC1=C2C(C[C@@H]1OC(=O)c1ccc(I)cc1)[C@](C)(O)CC[C@H]1[C@H](C)C(=O)O[C@H]21 (some centres not stated) and give its measured viability at 18 h.
Result: 93

Task: Consider the compound CC1=C2C(C[C@@H]1OC(=O)c1ccc(Br)cc1)[C@](C)(O)CC[C@H]1[C@H](C)C(=O)O[C@H]21 (some centres not stated) and give its measured viability at 18 h.
Result: 98.1

Task: Consider the compound CC1=C2C(C[C@@H]1OC(=O)/C=C/c1ccc(C(F)(F)F)cc1)[C@](C)(O)CC[C@H]1[C@H](C)C(=O)O[C@H]21 (some centres not stated) and give its measured viability at 18 h.
Result: 100

Task: Consider the compound CCCCCc1ccc(C(=O)O[C@H]2CC3C(=C2C)[C@H]2OC(=O)[C@@H](C)[C@@H]2CC[C@@]3(C)O)cc1 (some centres not stated) and give its measured viability at 18 h.
Result: 79.3

Task: Consider the compound CC1=C2C(C[C@@H]1OC(=O)/C=C/c1ccc(Br)cc1)[C@](C)(O)CC[C@H]1[C@H](C)C(=O)O[C@H]21 (some centres not stated) and give its measured viability at 18 h.
Result: 97.8

Others:
Task: Consider the compound CCOc1ccc(/C=C/C(=O)O[C@H]2CC3C(=C2C)[C@H]2OC(=O)[C@@H](C)[C@@H]2CC[C@@]3(C)O)cc1 (some centres not stated) and give its measured viability at 18 h.
Result: 35.6

Task: Consider the compound CC1=C2C(C[C@@H]1OC(=O)c1ccc(C#N)cc1)[C@](C)(O)CC[C@H]1[C@H](C)C(=O)O[C@H]21 (some centres not stated) and give its measured viability at 18 h.
Result: 100

----------
# experimental_protocol: Cytotoxicity against mouse RAW264.7 cells assessed as cell survival rate up to 25 uM after 18 hrs by MTT assay relative to control
# Format: cell-based
# test_context: read-out: Survival
Listing of entries alongside the reported viability at 18 h.

Task: Consider the molecule CC1=C2C(C[C@@H]1OC(=O)c1ccc([N+](=O)[O-])cc1)[C@](C)(O)CC[C@H]1[C@H](C)C(=O)O[C@H]21 (some centres not stated) and give its measured viability at 18 h.
Result: 100%

Task: Consider the molecule COc1ccc(C(=O)O[C@H]2CC3C(=C2C)[C@H]2OC(=O)[C@@H](C)[C@@H]2CC[C@@]3(C)O)cc1 (some centres not stated) and give its measured viability at 18 h.
Result: 98%

Task: Consider the molecule CC1=C2C(C[C@@H]1OC(=O)c1ccc(OC(F)(F)F)cc1)[C@](C)(O)CC[C@H]1[C@H](C)C(=O)O[C@H]21 (some centres not stated) and give its measured viability at 18 h.
Result: 97.5%

Task: Consider the molecule CC1=C2C(C[C@@H]1OC(=O)c1ccc(F)cc1)[C@](C)(O)CC[C@H]1[C@H](C)C(=O)O[C@H]21 (some centres not stated) and give its measured viability at 18 h.
Result: 100%

Task: Consider the molecule CC1=C2C(C[C@@H]1OC(=O)c1ccc3ccccc3c1)[C@](C)(O)CC[C@H]1[C@H](C)C(=O)O[C@H]21 (some centres not stated) and give its measured viability at 18 h.
Result: 100%

Task: Consider the molecule CC1=C2C(C[C@@H]1OC(=O)/C=C/c1ccc(F)cc1)[C@](C)(O)CC[C@H]1[C@H](C)C(=O)O[C@H]21 (some centres not stated) and give its measured viability at 18 h.
Result: 100%

Shifting focus to the molecule that follows.
Task: Consider the molecule CC1=C2C(C[C@@H]1OC(=O)c1ccsc1)[C@](C)(O)CC[C@H]1[C@H](C)C(=O)O[C@H]21 (some centres not stated) and give its measured viability at 18 h.
Result: 93.9%
